- System: A549/ATCC NSCLC
- ASSAY_TEXT: NCI-60 one-dose screen, 48 h
- PARTICULARS: 10 µM unless noted
- Experimental: Growth inhibition of the A549/ATCC human Non-Small Cell Lung tumor cell line is measured as a screen for anti-cancer activity. Cells are grown in 96 well plates and exposed to the test compound for 48 hours. Compounds are tested at a single concentration, which is 10^-5 M for most compounds. The reported endpoint is percent growth (GI% or GIPRCNT), where numbers from 0 - 100% represent growth inhibition, and numbers from -100% - 0 represent cell death. […]
This is part of a sample that, as a whole, favours compounds with a hit. Of some 83,000 tested, about 20% had one in any assay. Calls of active or inactive are those of the source. How the source made its calls: active means growth percent below 10; inactive means the rest.
Outcomes: active, inactive

1) O=C(CC(=O)C(F)(F)C(F)(F)C(F)(F)F)c1cc2ccccc2o1	inactive
2) COc1ccc(/C(C)=N/NC(=O)CSc2nc3ccccc3c(=O)n2CCc2ccc(S(N)(=O)=O)cc2)cc1	active
3) CC(=O)O[C@@H]1CC2C(C)(C)CCCC2(C)C2=C1C(=O)C(C(C)C)=CC2=O (stereo not given in full)	active
4) CCNCCCn1c2c(c3ccc(Cl)cc3c1=O)C(=O)c1cc(OC)cnc1-2	inactive
5) c1coc(CNc2c3ccccc3nc3ccccc23)c1	inactive

====

- Test system: LOX IMVI melanoma
- ASSAY_TEXT: NCI-60 one-dose screen, 48 h (100 = growth as untreated, 0 = no growth, -100 = all killed)
- PARTICULARS: 10 µM unless noted
- Protocol: Growth inhibition of the LOX IMVI human tumor cell line is measured as a screen for anti-cancer activity. Cells are grown in 96 well plates and exposed to the test compound for 48 hours. Compounds are tested at a single concentration, which is 10^-5 M for most compounds. The reported endpoint is percent growth (GI% or GIPRCNT), where numbers from 0 - 100% represent growth inhibition, and numbers from -100% - 0 represent cell death. For example, a value of 40 represents 60% growth inhibition. […]
Compounds without any hit were thinned out: in the full panel of roughly 83,000, 20% have a hit.
RECORDED_ENDPOINT: growth (%)

1. COc1cc(OC)c(C(=O)/C=C/c2cccc(OC(C)=O)c2)cc1CC=C(C)C	48.3
2. COc1ccc(/C=C/c2nc3ccccc3c(=O)n2-c2ccc(C#Cc3ccc(C(C)(C)C)cc3)cc2C)c(OC)c1	80
3. CS(=O)(=O)c1ccc(Cl)c([N+](=O)[O-])c1	88.2
4. COc1ccc(-c2ccc(-c3ccc(C(=N)N)s3)s2)cc1	-74.7
5. CCN(CCC#N)c1ccccc1	102
6. Cn1c(=O)c2c(nc(N/N=C/c3ccccc3Cl)n2C)n(C)c1=O	98.2

====

- System: A498 renal
- ASSAY_TEXT: NCI-60 one-dose screen, 48 h
- PARTICULARS: 10 µM unless noted
This is part of a sample that, as a whole, favours compounds with a hit. Of some 83,000 tested, about 20% had one in any assay. Activity calls are given as the source filed them. Rule for the calls: active = growth percent below 10; inactive = the rest.
Possible outcomes: t = active, f = inactive

1. S=C(S)Oc1cccc2cccnc12	f
2. COc1ccc([C@H]2c3[nH]c4ccccc4c3C[C@H]3C(=O)N(CCCCCCC(=O)NO)CC(=O)N23)cc1	t
3. CN(C)c1nc(-c2cccs2)n2nc(-c3ccco3)cc2n1	f
4. CS(=O)(=O)c1ccc(C(=O)N/N=C/c2ccccc2Cl)cc1	f
5. O=S1(=O)NCCN1CCNc1nccc(-c2c(-c3cccc(O)c3)nc3sccn23)n1	f
6. COC(=O)c1ccc2c(c1)nc(-c1cc3ccccc3[nH]c1=O)n2-c1cc(C(C)(C)C)[nH]n1	f
7. N=C(N)c1ccc(-c2ccc(-c3ccco3)o2)cc1F	f
8. C[C@H](NC(=O)c1snnc1C1CC1)c1c(F)cccc1Cl	f
9. CN(C)c1ccc(/C=C\c2cccc[n+]2C)cc1	f
10. COc1cc(/C=C/c2cc(/C=C/c3ccc(O)c(OC)c3)n(C(=O)Nc3ccc(F)c(Cl)c3)n2)ccc1O	t

====

Recorded growth for the following compounds
- System: SNB-19 CNS
- ASSAY_TEXT: NCI-60 one-dose screen, 48 h (100 = growth as untreated, 0 = no growth, -100 = all killed)
- PARTICULARS: 10 µM unless noted
The panel holds about 83,000 compounds, 20% with a hit somewhere; the sample as a whole holds those more often.
RECORDED_ENDPOINT: growth (%)

1. COc1ccc2nc3ccccc3c(NCc3ccc(C)cc3)c2c1	29.2
2. CS(=O)(=O)c1ccc(Cl)c([N+](=O)[O-])c1	105
3. CN1CCC2(CC1)N=C(SCC(=O)Nc1cnc3ccccc3c1)C(c1ccc(Br)cc1)=N2	40.7
4. NNC(=O)CSc1nc2scc(-c3ccccc3)c2c(=O)n1-c1ccccc1	107
5. CC(=O)N1N=C(C2C(=O)N(C)C(=O)N(C)C2=O)CC1c1ccccc1C(=O)O (stereo not given)	106
6. COc1ccc(-c2nn(C(=O)NCCN(C)C)cc2-c2ccncc2)cc1Cl	54.8
7. Cc1cc(N)cc(C)c1-c1c(Br)cc(N)cc1Br	37.4
8. C#C[C@]1(O)CC[C@H]2[C@@H]3CC=C4c5sc(-c6cccc(Br)c6)nc5CC[C@]4(C)[C@H]3CC[C@@]21C	84.6
9. O=C(O)C(CCc1ccccc1)NCc1ccccc1 (stereo not given)	97.5
10. CC1(C)CC(=O)c2cc3c(N)c(C(=O)Nc4ccc(Cl)cc4)sc3nc2C1	114

====

- Tested on: HCT-116 colon
- ASSAY_TEXT: NCI-60 one-dose screen, 48 h
- PARTICULARS: 10 µM unless noted
This is part of a sample that, as a whole, favours compounds with a hit. Of some 83,000 tested, about 20% had one in any assay. Active and inactive are the calls of the source. The calls were made as follows: active = growth percent below 10; inactive = the rest.
Labels: True (active), False (inactive)

1. COc1ccc(-n2nc(C(=O)Nc3ccc(F)cc3)nc2-c2cc(OC)c(OC)c(OC)c2)cc1	False
2. COc1ccc(/C=C(\C#N)c2cc(OC)c(OC)c(OC)c2)cc1	True
3. CN1C(=O)C(C2=NNC(c3ccccc3C(=O)O)C2)C(=O)N(C)C1=O (stereo not given)	False
4. CCCCCCCCCCCCCCCC1=NC(C)(C)CN1C(C)C	True
5. CCOc1cc(/C=N\NC(=O)C[N+](C)(C)C)ccc1O	False
6. CC(=O)OC[C@H]1O[C@@H](n2c(=O)cc(N)[nH]c2=O)C(OC(C)=O)[C@@H]1OC(C)=O (stereo not given in full)	False
7. CCN(CCC#N)c1ccccc1	False
8. CCn1c(Cc2ccccc2Nc2c(Cl)cccc2Cl)nnc1SCC(=O)Nc1cccc(OC)c1	False
9. O=C1/C(=C/N2N=C(c3ccc(Cl)cc3)CC2c2ccccc2O)SC(=S)N1c1cccc(C(F)(F)F)c1 (stereo not given)	False
10. CCCCOC(=O)c1cc(O)c(O)c(O)c1	False
11. Cn1cnc([N+](=O)[O-])c1S(=O)(=O)Oc1cccc2ccccc12	False
12. CC(C)c1ccc(-c2cnc3nonc3n2)cc1	False
13. O=c1c2cc(Cl)ccc2oc2ccc(OCCCCCN3CCCCCC3)cc12	False
14. CCOC(=O)c1ccc(NC(=O)CSC(N)=O)cc1	False
15. CC(C)CCSc1nc(-c2ccc(F)cc2)c(C#N)c(N2CCCCC2)n1	False
16. CC(C)CCC(=O)[C@@H](C)[C@H]1[C@@H](OC2OCC(O)C(O)C2NS(C)(=O)=O)C[C@H]2[C@@H]3CC=C4C[C@@H](O)CC[C@]4(C)[C@H]3CC[C@]12C (stereo not given in full)	False
17. CNC(=O)c1c(NC(=O)c2cccc(C(F)(F)F)c2)sc2c1CCC(=O)C2	True
18. COC(=O)OC1C(O[C@H]2C[C@H]3[C@@H]4CC=C5C[C@@H](O)CC[C@]5(C)[C@H]4CC[C@]3(C)[C@H]2[C@H](C)C(=O)CCC(C)C)OCC(O)C1OC1OCC(O)C(O)C1OC(=O)c1ccc(OC)cc1 (stereo not given in full)	True
19. CSc1nc(N)c2[nH]c(-c3cc4ccccc4[nH]c3=O)nc2n1	False
20. CCCCCCCOc1cccc(/C=C2\N=C3SCCCN3C2=O)c1	False

====

- System: RXF 393 renal
- ASSAY_TEXT: NCI-60 one-dose screen, 48 h
- PARTICULARS: 10 µM unless noted
The panel holds about 83,000 compounds, 20% with a hit somewhere; the sample as a whole holds those more often. Calls of active or inactive are those of the source. How the source made its calls: active means growth percent below 10; inactive means the rest.
Outcomes: YES = active, NO = inactive

1) O=C(CC(=O)C(F)(F)C(F)(F)C(F)(F)F)c1cc2ccccc2o1	NO
2) COc1ccc(C2NC(=O)c3cc4c(cc3N2)OCO4)cc1 (stereo not given)	YES
3) CC(=O)C1CCC2C3CC(C)=C4CC(O)CCC4(C)C3CCC12C (stereo not given)	NO
4) CCOC(=O)C(Cc1ccccc1)n1c(O)c(/C=N/c2ncc(Cc3ccc(Cl)cc3Cl)s2)sc1=S (stereo not given)	YES
5) CCN(CC)CCNC(=O)n1cc(-c2ccncc2)c(-c2ccc(Cl)c(OC)c2)n1	NO
6) CNC(=O)c1c(NC(=O)c2cccc(C(F)(F)F)c2)sc2c1CCC(=O)C2	YES
7) CS(=O)(=O)c1ccc(C(=O)N2N=C(c3ccccc3)CC2c2ccc3c(c2)OCO3)cc1 (stereo not given)	NO
8) ClCc1c(Cl)c(Cl)c(Cl)c(CCl)c1Cl	YES
9) O=C(Nc1ccncc1)C(=O)c1cn(S(=O)(=O)c2cccc(Cl)c2F)c2ccccc12	NO
10) c1ccc(CCn2cccc2)nc1	NO
11) Nc1cc(C(=O)O)cc(C(=O)O)c1	NO
12) c1ccc(-c2nnn(-c3ccccc3)n2)cc1	NO
13) CC1OC(n2c3ccccc3c3c4c(c5c6ccccc6[nH]c5c32)C(=O)N(CCN2CCOCC2)C4=O)CC(O)C1O (stereo not given)	NO
14) O=C1C=CN2C(=O)CC=CC2[C@@H]1O (stereo not given in full)	NO
15) COc1ccc(-c2cc(C(=O)Nc3ccc(Br)cc3)nc3[nH]c(=O)sc23)cc1	NO
16) Cc1nc(N)nc2c1CCC(Nc1ccccc1)S2 (stereo not given)	NO
17) CCC1=CC2CN(C1)Cc1c([nH]c3ccccc13)[C@@](C(=O)OC)(c1cc3c(cc1OC)N(C)[C@H]1[C@@](O)(C(=O)OC)[C@H](OC(C)=O)[C@]4(CC)C=CCN5CC[C@]31[C@@H]54)C2 (stereo not given in full)	NO
18) O=C(O/C(=C/c1ccccc1)C(F)(F)F)c1ccccc1	NO
19) C=C1C(=O)O[C@H]2[C@H]1CC/C(COC(=O)NCc1[nH]nc3ccccc13)=C\CC[C@@]1(C)O[C@@H]21	YES
20) Cc1cc(-c2ccc(N=Nc3c(S(=O)(=O)O)cc4cc(S(=O)(=O)O)cc(O)c4c3O)c(C)c2)ccc1N=Nc1c(S(=O)(=O)O)cc2cc(S(=O)(=O)O)cc(O)c2c1O	NO
21) O=[N+]([O-])c1ccc(SSc2ccc([N+](=O)[O-])cc2Cl)c(Cl)c1	NO
22) CCSCC1CC(O)(c2ccccc2)C(c2ccccc2)C(c2ccc(F)cc2)O1 (stereo not given)	YES
23) NS(=O)(=O)c1ccc(CCn2c(SCC(=O)N/N=C/c3cccnc3)nc3ccccc3c2=O)cc1	NO
24) COc1cccc(NC(=O)OC(C)C)c1	NO
25) Cc1cccc(N=NC(=S)NNc2cccc(C)c2)c1	NO
26) CCN(CC)CCCC(C)Nc1ccnc2ccc(Oc3ccccc3)cc12 (stereo not given)	NO
27) CC(=O)c1ccc(N2C(=O)c3ccc(Oc4ccccc4)cc3C2=O)cc1	NO
28) Cc1ccc(C(CN(C)C)C(=O)c2ccccc2)cc1 (stereo not given)	NO
29) CCN(CC)CCCC(C)Nc1c(-c2ccccc2)cnc2cc(Cl)ccc12 (stereo not given)	NO
30) COc1cc2c(cc1OC)-c1cc(OC)c(OC)cc1C(CN(C)C)C2 (stereo not given)	NO
31) COc1ccc(/C(C)=N/NC(=O)c2ccc(S(C)(=O)=O)cc2)cc1OC	NO
32) O=c1oc2ccccc2cc1-c1cc(-c2ccc(-c3cc(-c4cc5ccccc5oc4=O)nc(-c4cc5ccccc5oc4=O)c3)cc2)cc(-c2cc3ccccc3oc2=O)n1	NO
33) CC(C)(C)c1nn(-c2ccccc2)c2c1C(=O)CSC(c1ccc3c(c1)OCO3)N2 (stereo not given)	NO
34) Cn1c(-c2ccccc2)cc(=O)n1-c1ccccc1	NO
35) O=C(Nc1ccc(Br)cc1)Nc1cccc(Br)c1	NO
36) NS(=O)(=O)c1ccc(CCn2c(SCC(=O)N/N=C/c3ccccc3O)nc3ccccc3c2=O)cc1	NO
37) C[C@H](NC(=O)c1snnc1C1CC1)c1c(F)cccc1Cl	YES
38) CC(C)(C)[Si](C)(C)OC1[C@@H](O[Si](C)(C)C(C)(C)C)[C@@H](CNC(=O)NC(=O)NC(=O)CI)O[C@H]1n1cnc2c(NC(=O)Nc3ccccc3)ncnc21 (stereo not given in full)	YES
39) O=S1(=O)NCCN1CCNc1nccc(-c2c(-c3cccc(O)c3)nc3sccn23)n1	NO
40) COc1cc(C2CC(=O)Nc3c2cnn3C)cc(OC)c1OC (stereo not given)	NO
